Target entity: hOGG1 (Homo sapiens, UniProt O15527)
Sequence (O15527 12-323): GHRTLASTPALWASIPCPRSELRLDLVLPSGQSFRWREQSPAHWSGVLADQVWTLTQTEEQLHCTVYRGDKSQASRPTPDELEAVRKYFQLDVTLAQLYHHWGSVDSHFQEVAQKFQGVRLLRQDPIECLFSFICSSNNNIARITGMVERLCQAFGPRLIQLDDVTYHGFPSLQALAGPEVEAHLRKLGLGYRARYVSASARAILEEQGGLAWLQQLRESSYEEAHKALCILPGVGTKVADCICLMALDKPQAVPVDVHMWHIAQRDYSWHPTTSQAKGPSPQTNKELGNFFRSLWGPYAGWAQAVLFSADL
Assay notes: Biochemical fluorescence assay to measure enzymatic activity of hOGG1 (OGG1/APEX IC50)
Parameters: Protein His-hOGG1 (12-323) was prepared; His (N); host or cells: E. coli
Study conditions: 1 nM OGG1+2 nM APEX+6 nM dsDNA (8-oxo-dG substrate); pH 7.5; RT 40 min; read-out: OGG1/APEX IC50
Measured endpoint: IC50

Reference set, count: 8
>>> print(df.to_string())
                                   molecule                         target_entity        test_value
0  Cc1cccc2c1CN([C@H]1CC[C@@H](C(=O)Nc3ccc(Cl)c(C#N)c3)CC1)C2=O  hOGG1 (Homo sapiens, UniProt O15527)    100 to 1000 nM
1  C=Cc1cccc2c1CN([C@H]1CC[C@@H](C(=O)Nc3ccc(C)c(OC)c3)CC1)C2=O  hOGG1 (Homo sapiens, UniProt O15527)    100 to 1000 nM
2  COc1cc(NC(=O)[C@H]2CC[C@H](N3Cc4c(C)cc(COC5CNC5)cc4NC3=O)CC2)ccc1C  hOGG1 (Homo sapiens, UniProt O15527)        > 10000 nM
3  COc1cc(NC(=O)[C@H]2CC[C@@H](N3Cc4c(C)cc(C(=O)NCCN(C)C)cc4C3=O)CC2)ccc1C  hOGG1 (Homo sapiens, UniProt O15527)          < 100 nM
4  COc1cc(NC(=O)[C@H]2CC[C@@H](N3Cc4c(C)ccc(P(C)(C)=O)c4NC3=O)CC2)ccc1C  hOGG1 (Homo sapiens, UniProt O15527)    100 to 1000 nM
5  Cc1cccc2c1CN([C@H]1CC[C@@H](C(=O)Nc3ccc(Cl)c(F)c3)CC1)C(=O)N2  hOGG1 (Homo sapiens, UniProt O15527)    100 to 1000 nM
6  Cc1cc(NCCN(C)C)cc2c1CN([C@H]1CC[C@@H](C(=O)Nc3ccn(CCO)n3)CC1)C2=O  hOGG1 (Homo sapiens, UniProt O15527)  1000 to 10000 nM
7  COc1cc(NC(=O)[C@H]2CC[C@@H](N3Cc4c(C)cc(OCC5(F)CNC5)cc4C3=O)CC2)ccc1C  hOGG1 (Homo sapiens, UniProt O15527)          < 100 nM

Next:
Hello, please tell me recorded IC50 for this one: COc1cc(NC(=O)[C@H]2CC[C@@H](N3Cc4c(C)ccc(OCC5CNC5)c4NC3=O)CC2)ccc1C
< 100 nM

* * *

Target entity: hOGG1 (Homo sapiens, UniProt O15527)
Assay notes: Biochemical fluorescence assay to measure enzymatic activity of hOGG1 (OGG1/APEX IC50)
Parameters: Protein His-hOGG1 (12-323) was prepared; His (N); host or cells: E. coli
Study conditions: 1 nM OGG1+2 nM APEX+6 nM dsDNA (8-oxo-dG substrate); pH 7.5; RT 40 min; read-out: OGG1/APEX IC50
Measured endpoint: IC50

                                   compound  measured_endpoint      test_value
0  COc1cc(NC(=O)[C@H]2CC[C@@H](N3Cc4c(Br)cc(NC5CNC5)cc4C3=O)CC2)ccc1C [Example 180]               IC50        < 100 nM
1  COc1ccc(NC(=O)[C@H]2CC[C@@H](N3Cc4c(C)ccc(OC)c4NC3=O)CC2)cc1C [Example 4]               IC50  100 to 1000 nM
2  COc1cc(NC(=O)[C@H]2CC[C@@H](N3Cc4c(C)cc(OCCN5CCC5)cc4C3=O)CC2)ccc1C [Example 261]               IC50        < 100 nM

Hello, please tell me recorded IC50 for this one: COc1cc(NC(=O)[C@H]2CC[C@H](N3Cc4c(C)cc(NCCN(C)C)cc4NC3=O)CC2)ccc1C [Example 85]
100 to 1000 nM

Hello, please tell me recorded IC50 for this one: COc1cc(NC(=O)[C@]2(C)CC[C@H](N3Cc4c(C)cccc4C3=O)CC2)ccc1C [Example 277]
100 to 1000 nM

Hello, please tell me recorded IC50 for this one: COc1cc(NC(=O)[C@H]2CC[C@H](n3[nH]c4c(Br)cccc4c3=O)CC2)ccc1C (single isomer, unassigned) [Example 159]
> 10000 nM

Hello, please tell me recorded IC50 for this one: COc1cc(NC(=O)[C@H]2CC[C@@H](N3Cc4c(CF)cccc4C3=O)CC2)ccc1C [Example 166]
1000 to 10000 nM

Hello, please tell me recorded IC50 for this one: COc1cc(NC(=O)[C@H]2CC[C@@H](N3Cc4c(CN)cccc4C3=O)CC2)ccc1C [Example 134]
> 10000 nM

Hello, please tell me recorded IC50 for this one: COc1cc(NC(=O)[C@H]2CC[C@@H](N3Cc4c(C)cc(NCC5CNC5)cc4C3=O)CC2)ccc1C [Example 195]
< 100 nM

Hello, please tell me recorded IC50 for this one: COc1cc(NC(=O)[C@H]2CC[C@@H](N3Cc4c(C)ccc(C5CC5)c4NC3=O)CC2)ccc1C [Example 39]
< 100 nM

Hello, please tell me recorded IC50 for this one: COc1cc(NC(=O)[C@H]2CC[C@@H](N3Cc4c(C)cc(C5=CCNCC5)cc4C3=O)CC2)ccc1C [Example 146]
< 100 nM

Hello, please tell me recorded IC50 for this one: COc1cc(NC(=O)[C@H]2CC[C@@H](N3Cc4c(C)cnc(C#N)c4NC3=O)CC2)ccc1C [Example 22]
< 100 nM

Hello, please tell me recorded IC50 for this one: COc1ccc(NC(=O)[C@H]2CC[C@@H](N3Cc4c(C)ccnc4NC3=O)CC2)cc1C [Example 16]
< 100 nM

Hello, please tell me recorded IC50 for this one: COc1cc(NC(=O)[C@H]2CC[C@@H](N3Cc4c(Br)cc(NC(=O)Cn5ccnc5)cc4C3=O)CC2)ccc1C [Example 196]
100 to 1000 nM

Hello, please tell me recorded IC50 for this one: COc1cc(NC(=O)[C@H]2CC[C@@H](N3Cc4c(ccc(N5CCC5)c4C)NC3=O)CC2)ccc1C [Example 42]
100 to 1000 nM

* * *

Target entity: nLucOGG1 in HeLa cells (Homo sapiens)
Construct: thermal shift read by NanoGlo luminescence
Sequence (O15527 whole entry): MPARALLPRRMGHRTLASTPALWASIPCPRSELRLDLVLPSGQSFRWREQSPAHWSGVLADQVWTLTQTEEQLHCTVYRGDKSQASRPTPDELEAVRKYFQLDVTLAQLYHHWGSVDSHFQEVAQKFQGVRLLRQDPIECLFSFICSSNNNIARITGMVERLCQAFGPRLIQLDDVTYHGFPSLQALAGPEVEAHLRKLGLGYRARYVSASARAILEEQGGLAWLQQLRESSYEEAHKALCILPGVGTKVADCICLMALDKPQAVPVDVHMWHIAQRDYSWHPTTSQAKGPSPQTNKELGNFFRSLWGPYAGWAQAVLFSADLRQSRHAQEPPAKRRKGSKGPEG
Assay notes: Cellular Thermal Shift Assay to measure compound affinity for nLucOGG1 in HeLa cells (CETSA DTm)
Type: cell-based
Study conditions: 10 μM compound, 37° C. 60 min, Tm vs DMSO control
Measured endpoint: ΔTm at 10 µM

Reference set, count: 3
In [3]: df
Out[3]:
                                   compound                          target_entity  test_value
0  COc1ccc(NC(=O)[C@]2(C)CC[C@@H](N3Cc4c(C)ccc(OC)c4NC3=O)CC2)cc1C (single isomer, unassigned)  nLucOGG1 in HeLa cells (Homo sapiens)      ≤ 6 °C
1  COc1cc(NC(=O)[C@]2(C)CC[C@H](N3Cc4c(C)cccc4C3=O)CC2)ccc1C  nLucOGG1 in HeLa cells (Homo sapiens)  8 to 10 °C
2  COc1cc(NC(=O)[C@]2(C)CC[C@@H](N3Cc4c(C)ccc(OC)c4NC3=O)CC2)ccc1C  nLucOGG1 in HeLa cells (Homo sapiens)      ≤ 6 °C

Hello, please tell me recorded ΔTm at 10 µM for this one: COc1ccc(NC(=O)[C@]2(C)CC[C@@H](N3Cc4c(C)ccc(OC)c4NC3=O)CC2)cc1Cl (single isomer, unassigned)
≤ 6 °C

* * *

Target entity: UniProt O15527
Assay notes: Biochemical fluorescence assay to measure enzymatic activity of hOGG1 (OGG1/APEX IC50)
Parameters: Protein His-hOGG1 (12-323) was prepared; His (N); host or cells: E. coli
Study conditions: 1 nM OGG1+2 nM APEX+6 nM dsDNA (8-oxo-dG substrate); pH 7.5; RT 40 min; read-out: OGG1/APEX IC50
pIC50: −log10 of the molar value.
Measured endpoint: pIC50

>>> print(df.to_string())
                                   compound    test_value
0  COc1cc(NC(=O)[C@H]2CC[C@@H](n3[nH]c4c(C)cc(F)cc4c3=O)CC2)ccc1C [Example 119]  6.00 to 7.00
1  COCc1ccc2c(c1C)CN([C@H]1CC[C@@H](C(=O)Nc3ccc(C)c(OC)c3)CC1)C(=O)N2 [Example 48]  5.00 to 6.00

Hello, please tell me recorded pIC50 for this one: COc1ccc(NC(=O)[C@]2(C)CC[C@@H](N3Cc4c(C)cccc4NC3=O)CC2)cc1C (single isomer, unassigned) [Example 106]
5.00 to 6.00

Hello, please tell me recorded pIC50 for this one: COc1cc(NC(=O)[C@H]2CC[C@@H](N3C(=O)c4c(C)ccc(C)c4C3=O)CC2)ccc1C [Example 253]
6.00 to 7.00

These entries and their values trace back to patent US20260317356A1.
